Target: histamine H4 receptor (Homo sapiens)
Assay: H4 Membrane Binding Assay (3H-Histamine displacement)
Settings: membranes of recombinant HEK293SFM cells, 10 nM 3H-Histamine, 1.5 hr at room temperature
pIC50: −log10 of the molar value.
Quantity Measured: pIC50

(P) CN1CCN(c2cc(-c3ccc4c(c3)CN(C(=O)Nc3nc(C(F)(F)F)cs3)CC4)nc(N)n2)CC1 [Example 50]
(Q) COC(=O)c1ccc(COc2ccc3c(c2)C(NC(=O)c2ccc4c(N5CCN(C)CC5)nc(N)nc4c2)CCC3)cc1 (stereo not drawn) [Example 206]
(R) COc1cc(COc2cccc(CNC(=O)c3ccc4c(N5CCN(C)CC5)nc(N)nc4c3)c2)cc(OC)c1 [Example 194]
Input: Let's sort these by pIC50, smallest first. Go ahead? Show the ranking through the labels, in the order asked for.
Output: P, Q, R

###

Biological target: UniProtKB Q9H3N8
Experiment: H4 Membrane Binding Assay (3H-Histamine displacement)
Settings: membranes of recombinant HEK293SFM cells, 10 nM 3H-Histamine, 1.5 hr at room temperature
Quantity Measured: IC50 (nM)

> print(dat)
                                   compound  quantity.measured  val
1  COc1ccc(-c2ccc(CC(NC(=O)c3ccc4c(N5CCN(C)CC5)nc(N)nc4c3)C(=O)N(C)C)cn2)cc1 (stereo not drawn)               IC50   57

(1) CC(C)Cc1ccc(C(C)NC(=O)c2ccc3c(N4CCN(C)CC4)nc(N)nc3c2)cc1 (stereo not drawn)
(2) CN1CCN(c2nc(N)nc3cc(C(=O)N[C@@H](Cc4ccc(-c5ccc(F)c(C(F)(F)F)c5)cc4)C(=O)N(C)C)ccc23)CC1
Input: Hi, I'm comparing 1 with 2 and wondering which one has the bigger number for IC50. Any idea? Which one? Tell me its label.
Output: 1
(1: 171 nM, 2: 26 nM)
